Recorded values, source patent US20260209345A1.

Target: T1, recombinant LILRB2 ECD (human, UniProt Q8N423 22-460)
T1 construct: also called biotinylated LILRB2 ECD
T1 sequence (Q8N423 22-460 limits assumed): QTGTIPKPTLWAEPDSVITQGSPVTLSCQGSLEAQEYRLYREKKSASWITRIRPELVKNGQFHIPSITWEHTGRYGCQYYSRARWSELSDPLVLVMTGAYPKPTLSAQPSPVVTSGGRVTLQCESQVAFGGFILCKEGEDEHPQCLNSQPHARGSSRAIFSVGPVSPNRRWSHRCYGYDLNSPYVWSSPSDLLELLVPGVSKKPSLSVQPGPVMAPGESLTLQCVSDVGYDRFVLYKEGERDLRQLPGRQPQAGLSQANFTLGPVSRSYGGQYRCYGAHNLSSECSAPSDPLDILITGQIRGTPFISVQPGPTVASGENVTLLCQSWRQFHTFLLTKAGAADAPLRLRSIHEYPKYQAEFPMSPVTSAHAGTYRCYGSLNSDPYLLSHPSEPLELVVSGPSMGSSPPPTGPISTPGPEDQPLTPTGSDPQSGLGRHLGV
Assay: BLI, IgG on AHC sensor, ECD in solution
pKd: −log10 of the molar value.
Tick Condition met if pKd is 8 or greater. Tick Condition not met if pKd is less than 8.

Challenge: Is pKd for A-028 (antibody, V domains shown, tested as IgG) VH: QVQLVQSGAEVKKPGSSVKVSCKASGYSFSEHAMSWVRQAPGQGLEWMGGIIPKFSTSVFAQKFQGRVTITADESTSTAYMELSSLRSEDTAVYYCAKGPPVGSSSWYTDWYFDLWGRGTLVTVSS VL: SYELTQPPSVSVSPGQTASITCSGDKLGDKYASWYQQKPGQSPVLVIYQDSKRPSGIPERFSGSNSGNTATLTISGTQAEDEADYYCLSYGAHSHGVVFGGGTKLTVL at or above 8?
Response given: Condition met

Challenge: Is pKd for Ref062 [NGM707, cross-specific] (antibody, from another filing, V domains shown) VH: QVQLVQSGAEVKKPGASVKVSCKASGYTFTDYYINWVRQAPGQGLEWMGNVNPNDGGTTYNQKFKGRVTMTTDTSTSTAYMELRSLRSDDTAVYYCARREIYFYGTIYYYAMDYWGQGTLVTVSS VL: DIQLTQSPSFLSASVGDRVTITCRASESVDYYGNSFMYWYQQKPGKAPKLLIYFASNLESGVPSRFSGSGSGTEFTLTISSLQPEDFATYYCQQNNEDPWTFGGGTKVEIKR at or above 8?
Response given: Condition met

Challenge: Is pKd for A-026 (antibody, V domains shown, tested as IgG) VH: QVQLVQSGAEVKKPGSSVKVSCKASGYTFTSHGMSWVRQAPGQGLEWMGGILPIFHTATYAQKFQGRVTITADESTSTAYMELSSLRSEDTAVYYCAKGPPVGSSSWYTDWYFDLWGRGTLVTVSS VL: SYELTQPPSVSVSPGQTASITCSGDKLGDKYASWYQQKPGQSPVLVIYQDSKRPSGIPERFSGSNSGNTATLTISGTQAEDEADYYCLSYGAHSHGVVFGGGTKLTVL at or above 8?
Response given: Condition met

Challenge: Is pKd for A-036 (antibody, V domains shown, tested as IgG) VH: QVQLVQSGAEVKKPGSSVKVSCKASGGTFSSYAISWVRQAPGQGLEWMGGIIPIFGTANYAQKFQGRVTITADESTSTAYMELSSLRSEDTAVYYCAKDLGTYSSGWPYYYGMDVWGQGTTVTVSS VL: SYELTQPPSVSVSPGQTASITCSGDKLGDKYASWYQQKPGQSPVLVIYQDSKRPSGIPERFSGSNSGNTATLTISGTQAEDEADYYCQLTHLTIYVFGGGTKLTVL at or above 8?
Response given: Condition not met
